Reported pKd is given for each of the following molecules.
# SYSTEM TESTED: GDP-bound KRAS wild-type protein (Homo sapiens)
# EXPERIMENT NOTES: Binding to KRAS by surface plasmon resonance (SPR), Single Cycle Kinetics
# CONDITION CONTEXT: SPR, Single Cycle Kinetics, GDP-bound KRAS wild-type protein; read-out: KRAS KD
Lab note: report pKd as minus log10 of the concentration in molar units, number only.

So, CCO[C@@H]1C[C@H]2C(=O)NC3(CC(C)(C)C3)C(=O)N(C)[C@@H](C(CC)CC)C(=O)N(C)[C@H](C(=O)N(C)C)CC(=O)N(C)[C@@H](COC)C(=O)N[C@@H]([C@@H](C)CC)C(=O)N(C)CC(=O)N(C)[C@H]3C/C=C\CCN(C3=O)[C@@H](CC3CCC(F)(F)CC3)C(=O)N(C)CC(=O)N[C@@H](CCc3ccc(C(F)(F)F)c(Cl)c3)C(=O)N2C1 ? Its pKd was 9.23

Further cases:
Lab note: CCO[C@@H]1C[C@H]2C(=O)NC3(CC(C)(C)C3)C(=O)N(C)[C@@H](C3CCCC3)C(=O)N(C)[C@H](C(=O)N(C)C)CC(=O)N(C)[C@@H](CC(F)F)C(=O)N[C@@H]([C@@H](C)CC)C(=O)N(C)CC(=O)N(C)[C@H]3C/C=C\CCN(C3=O)[C@@H](Cc3ccc(C(F)(F)F)cc3)C(=O)N(C)CC(=O)N[C@@H](CCc3ccc(C(F)(F)F)c(Cl)c3)C(=O)N2C1 gave pKd of 10.24

// recorded pKd for CC[C@H](C)[C@@H]1NC(=O)[C@H](CC)N(C)C(=O)C[C@@H](C(=O)N(C)C)N(C)C(=O)[C@H](C2CCCC2)N(C)C(=O)C2(CCC2)NC(=O)[C@@H]2C[C@@H](C(F)(F)F)CN2C(=O)[C@H](CCc2cc(F)c(C(F)(F)F)c(F)c2)NC(=O)CN(C)C(=O)[C@H](Cc2ccc(C(F)(F)F)cc2)N2CC/C=C\C[C@@H](C2=O)N(C)C(=O)CN(C)C1=O : 10.30

Record CCCN(C)C(=O)[C@@H]1CC(=O)N(C)[C@@H](CC)C(=O)N[C@@H]([C@@H](C)CC)C(=O)N(C)CC(=O)N(C)[C@H]2C/C=C\CCN(C2=O)[C@@H](Cc2ccc(C(F)(F)F)cc2)C(=O)N(C)CC(=O)N[C@@H](CCc2cc(F)c(C(F)(F)F)c(F)c2)C(=O)N2C[C@H](OCC)C[C@H]2C(=O)NC2(CC(C)(C)C2)C(=O)N(C)[C@@H](C2CCCC2)C(=O)N1C . Reported pKd: 10.00

// sample CCCN(C)C(=O)[C@@H]1CC(=O)N(C)[C@@H](CC2CCC2)C(=O)N[C@@H]([C@@H](C)CC)C(=O)N(C)CC(=O)N(C)[C@H]2C/C=C\CCN(C2=O)[C@@H](Cc2ccc(C(F)(F)F)cc2)C(=O)N(C)CC(=O)N[C@@H](CCc2cc(F)c(C(F)(F)F)c(F)c2)C(=O)N2C[C@H](OCC)C[C@H]2C(=O)NC2(CCC2)C(=O)N(C)[C@@H](C2CCCC2)C(=O)N1C , its pKd was 9.85

Consider CCO[C@@H]1C[C@H]2C(=O)NC3(CCC3)C(=O)N(C)[C@@H](C3CCCC3)C(=O)N(CCC3CCCC3)[C@H](C(=O)N3CCOCC3)CC(=O)N(C)[C@@H](CC)C(=O)N[C@@H]([C@@H](C)CC)C(=O)N(C)CC(=O)N(C)[C@H]3C/C=C\CCN(C3=O)[C@@H](Cc3ccc(C(F)(F)F)cc3)C(=O)N(C)CC(=O)N[C@@H](CCc3cc(F)c(C(F)(F)F)c(F)c3)C(=O)N2C1 . Its measured pKd is 7.96

----------
pIC50, human lung cancer strain NCI-H441, per-entry values.
The scale used: pIC50 is minus the common logarithm of the concentration in molar units.

For this molecule ( CCO[C@@H]1C[C@H]2C(=O)NC3(CC(C)(C)C3)C(=O)N(C)[C@@H](C(CC)CC)C(=O)N(C)[C@H](C(=O)N(C)C)CC(=O)N(C)[C@@H](COC)C(=O)N[C@@H]([C@@H](C)CC)C(=O)N3CCC[C@H]3C(=O)N(C)[C@H]3C/C=C\CCN(C3=O)[C@@H](Cc3ccc(C(F)(F)F)cc3)C(=O)N(C)CC(=O)N[C@@H](CCc3ccc(Cl)c(Cl)c3)C(=O)N2C1 ), measured pIC50 is 7.30

Field pIC50 (entry CC[C@H](C)[C@@H]1NC(=O)[C@H](CC)N(C)C(=O)C[C@@H](C(=O)N(C)C)N(C)C(=O)[C@H](C2CCCC2)N(C)C(=O)C2(CCC2)NC(=O)[C@H](C)NC(=O)[C@H](CCc2cc(F)c(C(F)(F)F)c(F)c2)NC(=O)CN(C)C(=O)[C@H](Cc2ccc(C(F)(F)F)cc2)N2CC/C=C\C[C@@H](C2=O)N(C)C(=O)CN(C)C1=O ) reads 5.75

The recorded pIC50 for CC[C@H](C)[C@@H]1NC(=O)[C@H](COC)N(C)C(=O)C[C@@H](C(=O)N2CCOCC2)N(C)C(=O)[C@H](C2CCCC2)N(C)C(=O)C2(CCC2)NC(=O)[C@@H]2CCCN2C(=O)[C@H](CCc2cc(F)c(C(F)(F)F)c(F)c2)NC(=O)CN(C)C(=O)[C@H](Cc2ccc(C(F)(F)F)cc2)N2CCCCC[C@@H](C2=O)N(C)C(=O)CNC1=O is 6.85

----------
# SYSTEM TESTED: GDP-bound KRAS wild-type protein (Homo sapiens, UniProt P01116)
# Sequence (P01116 whole entry): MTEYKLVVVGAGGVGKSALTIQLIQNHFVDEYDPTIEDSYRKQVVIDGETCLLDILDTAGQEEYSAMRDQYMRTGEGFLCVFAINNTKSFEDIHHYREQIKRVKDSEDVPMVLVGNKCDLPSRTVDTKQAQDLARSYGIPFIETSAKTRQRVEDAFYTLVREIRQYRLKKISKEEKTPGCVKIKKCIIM
# EXPERIMENT NOTES: Binding to KRAS by surface plasmon resonance (SPR), Single Cycle Kinetics
# CONDITION CONTEXT: SPR, Single Cycle Kinetics, GDP-bound KRAS wild-type protein; read-out: KRAS KD
Measured pKd by item
Remember the convention: pKd equals -log10 of concentration in molar.

The examples below pair each entry with its known result.
For reference, reported pKd for CCO[C@@H]1C[C@H]2C(=O)NC3(CC(F)(F)C3)C(=O)N(C)[C@@H](C3CCCC3)C(=O)N(C)[C@H](C(=O)N(C)CC)CC(=O)N(C)[C@@H](CC3CC3)C(=O)N[C@@H]([C@@H](C)CC)C(=O)N(C)CC(=O)N(C)[C@H]3C/C=C\CCN(C3=O)[C@@H](Cc3ccc(C(F)(F)F)cc3)C(=O)N(C)CC(=O)N[C@@H](CCc3cc(F)c(C(F)(F)F)c(F)c3)C(=O)N2C1 stands at 10.15

Entry CCC[C@H]1C(=O)N[C@@H]([C@@H](C)CC)C(=O)N(C)CC(=O)N(C)[C@H]2C/C=C\CCN(C2=O)[C@@H](Cc2ccc(C)cc2)C(=O)N(C)CC(=O)N[C@@H](CCc2ccc(C(F)(F)F)c(OC)c2)C(=O)N2C[C@@H](C)C[C@H]2C(=O)NC2(CC(C)(C)C2)C(=O)N(C)[C@@H](C2CCCC2)C(=O)N(C)[C@H](C(=O)N(C)CC)CC(=O)N1C , pKd reported as 9.68

Next:
So for CCO[C@@H]1C[C@H]2C(=O)NC3(CCC3)C(=O)N(C)[C@@H](C3CCCC3)C(=O)N(C)[C@H](C(=O)N(C)C)CC(=O)N(C)[C@@H](Cc3cccs3)C(=O)N[C@@H]([C@@H](C)CC)C(=O)N(C)CC(=O)N(C)[C@H]3C/C=C\CCN(C3=O)[C@@H](Cc3ccc(C(F)(F)F)cc3)C(=O)N(C)CC(=O)N[C@@H](CCc3cc(F)c(C(F)(F)F)c(F)c3)C(=O)N2C1 , the logged pKd turned out to be 10.14

----------
# SYSTEM TESTED: GDP-bound KRAS wild-type protein (Homo sapiens, UniProt P01116)
# EXPERIMENT NOTES: Binding to KRAS by surface plasmon resonance (SPR), Single Cycle Kinetics
# CONDITION CONTEXT: SPR, Single Cycle Kinetics, 1:1 binding model; GDP-bound KRAS wild-type protein; read-out: KRAS KD
pKd: −log10 of the molar value.
Where pKd equals or exceeds 10, the correct label is Fulfilled; where it does not, the label is Not fulfilled.

Please check the record CCCCCC[C@H]1C(=O)N[C@@H]([C@@H](C)CC)C(=O)N(C)CC(=O)N(C)[C@H]2C/C=C\CCN(C2=O)[C@@H](Cc2ccc(C(F)(F)F)cc2)C(=O)N(C)CC(=O)N[C@@H](CCc2ccc(Cl)c(Cl)c2)C(=O)N2C[C@H](OCC)C[C@H]2C(=O)NC2(CCC2)C(=O)N(C)[C@@H](C2CCCC2)C(=O)N(C)[C@H](C(=O)N(C)C)CC(=O)N1C and state if its pKd is at or above 10. Not fulfilled

Could you please find out whether CC[C@H](C)[C@@H]1NC(=O)[C@H](CC2CCC2)N(C)C(=O)C[C@@H](C(=O)N2CCOCC2)N(C)C(=O)[C@H](C2CCCC2)N(C)C(=O)C2(CCC2)NC(=O)[C@@H]2CCCN2C(=O)[C@H](CCc2ccc(C(F)(F)F)c(Cl)c2)NC(=O)CN(C)C(=O)[C@H](Cc2ccc(C(F)(F)F)cc2)N2C[C@H](C)CC[C@@H](C2=O)N(C)C(=O)[C@@H]2CCN2C1=O has pKd that meets 10 or exceeds it? Not fulfilled

Dear colleague, could you confirm whether CCO[C@@H]1C[C@H]2C(=O)NC3(CCC3)C(=O)N(C)[C@@H](C3CCCC3)C(=O)N(C)[C@H](C(=O)N(C)C)CC(=O)N(C)[C@@H](CC(C)(C)C)C(=O)N[C@@H]([C@@H](C)CC)C(=O)N(C)CC(=O)N(C)[C@H]3C/C=C\CCN(C3=O)[C@@H](CC3CCC(F)(F)CC3)C(=O)N(C)CC(=O)N[C@@H](CCc3cc(F)c(C(F)(F)F)c(F)c3)C(=O)N2C1 has pKd at or above 10? Not fulfilled

Can CC[C@H](C)[C@@H]1NC(=O)[C@H](CC2CC2)N(C)C(=O)C[C@@H](C(=O)N2CCOCC2)N(C)C(=O)[C@H](C2CCCC2)N(C)C(=O)C2(CCC2)NC(=O)[C@@H]2CCCN2C(=O)[C@H](CCc2ccc(C(F)(F)F)c(Cl)c2)NC(=O)CN(C)C(=O)[C@H](Cc2ccc(C(F)(F)F)cc2)N2C[C@H](C)CC[C@@H](C2=O)N(C)C(=O)[C@@H]2CCN2C1=O be said to have pKd at or above 10? Not fulfilled

Form field: pKd at least 10? Entry: CCO[C@@H]1C[C@H]2C(=O)NC3(CCCC3)C(=O)N(C)[C@@H](C3CCCC3)C(=O)N(C)[C@H](C(=O)N(C)C)CC(=O)N(C)[C@@H](CC)C(=O)N[C@@H]([C@@H](C)CC)C(=O)N(C)CC(=O)N(C)[C@H]3C[C@@H](C)[C@@H](C)CN(C3=O)[C@@H](Cc3ccc(C(F)(F)F)cc3)C(=O)N(C)CC(=O)N[C@@H](CCc3cc(F)c(C(F)(F)F)c(F)c3)C(=O)N2C1 Fulfilled

More entries:
Answer whether pKd of CCO[C@@H]1C[C@H]2C(=O)NC3(CCC3)C(=O)N(C)[C@@H](C3CCCC3)C(=O)N(C)[C@H](C(=O)N(C)C)CC(=O)N(C)[C@@H](CC(C)C)C(=O)N[C@@H]([C@@H](C)CC)C(=O)N(C)CC(=O)N(C)[C@H]3C/C=C\CCN(C3=O)[C@@H](Cc3ccc(C(F)(F)F)cc3)C(=O)N(C)CC(=O)N[C@@H](CCc3cc(F)c(Cl)c(F)c3)C(=O)N2C1 is greater than or equal to 10. Not fulfilled

Threshold query (pKd >= 10) on CCC[C@H]1C(=O)N[C@@H]([C@@H](C)CC)C(=O)N(C)CC(=O)N(C)[C@H]2C/C=C\CCN(C2=O)[C@@H](Cc2ccc(C(F)(F)F)cc2)C(=O)N(C)CC(=O)N[C@@H](CCc2cc(F)c(C(F)(F)F)c(F)c2)C(=O)N2C[C@H](OCC)C[C@H]2C(=O)NC2(CCC2)C(=O)N(C)[C@@H](C2CCCC2)C(=O)N(C)[C@H](C(=O)N2CC3CCC(C2)O3)CC(=O)N1C Not fulfilled

Answer whether pKd of CCO[C@@H]1C[C@H]2C(=O)NC3(CC(C)(C)C3)C(=O)N(C)[C@@H](C3CCCC3)C(=O)N(C)[C@H](C(=O)N(C)C)CC(=O)N(C)[C@@H](CC(C)C)C(=O)N[C@@H]([C@@H](C)CC)C(=O)N(C)CC(=O)N(C)[C@H]3C/C=C\CCN(C3=O)[C@@H](Cc3ccc(C(F)(F)F)cc3)C(=O)N(C)CC(=O)N[C@@H](CCc3ccc(C(F)(F)F)c(OC)c3)C(=O)N2C1 is greater than or equal to 10. Fulfilled
